molecular target: Glutamate NMDA receptor; Grin1/Grin2c (Rattus norvegicus) (UniProt P35439+Q00961); assay: Potentiation of rat recombinant GluN1/GluN2C expressed in Xenopus laevis oocytes assessed as increase in glutamate/glycine-induced current response at 30 uM by two-electrode voltage clamp technique relative to control; format: cell-based
assayMetric: max activation
# number then unit; no other words

Before answering, review these 4 worked examples.
[[record]]
compound = "COC(=O)c1ccc(C2C(C(=O)c3cccnc3)=C(O)C(=O)N2CCc2c[nH]c3ccccc23)cc1 (configuration not stated)"
assaysystem = "Glutamate NMDA receptor; Grin1/Grin2c (Rattus norvegicus) (UniProt P35439+Q00961)"
experimentalresult = "201%"

[[record]]
compound = "COC(=O)c1ccc(C2C(C(=O)C(C)(C)C)=C(O)C(=O)N2CCc2c[nH]c3ccccc23)cc1 (configuration not stated)"
assaysystem = "Glutamate NMDA receptor; Grin1/Grin2c (Rattus norvegicus) (UniProt P35439+Q00961)"
experimentalresult = "187%"

[[record]]
compound = "COC(=O)c1ccc(C2C(C(=O)c3cccc(C)c3)=C(O)C(=O)N2CCc2c[nH]c3ccccc23)cc1 (configuration not stated)"
assaysystem = "Glutamate NMDA receptor; Grin1/Grin2c (Rattus norvegicus) (UniProt P35439+Q00961)"
experimentalresult = "131%"

[[record]]
compound = "COC(=O)c1ccc(C2C(C(=O)c3cccc(F)c3)=C(O)C(=O)N2CCc2c[nH]c3ccccc23)cc1 (configuration not stated)"
assaysystem = "Glutamate NMDA receptor; Grin1/Grin2c (Rattus norvegicus) (UniProt P35439+Q00961)"
experimentalresult = "136%"


Query: What max activation value was documented for this compound, CCOC(=O)c1ccc(C2C(C(C)=O)=C(O)C(=O)N2CCc2c(C)[nH]c3ccccc23)cc1 (configuration not stated) ?
Result: 265%

Query: Check COC(=O)c1ccc(C2C(C(C)=O)=C(OC)C(=O)N2CCc2c[nH]c3ccccc23)cc1 (configuration not stated) too.
Result: 163%

Query: Cool, now COC(=O)c1ccc(C2C(C(=O)c3cccnc3)=C(O)C(=O)N2CCc2c[nH]c3cc(OC)ccc23)cc1 (configuration not stated)
Result: 204%

Query: Let us now turn to CCOC(=O)c1ccc(C2C(C(C)=O)=C(O)C(=O)N2CCc2c[nH]c3ccccc23)cc1 (configuration not stated)
Result: 237%

Query: Also check COC(=O)c1ccc(C2C(C(=O)c3cccnc3)=C(O)C(=O)N2CCc2c[nH]c3cc(Cl)ccc23)cc1 (configuration not stated)
Result: 204%

Query: Lookup COC(=O)c1ccc(C2C(C(C)=O)=C(O)C(=O)N2CCc2c[nH]c3ccccc23)c(O)c1 (configuration not stated)
Result: 202%

Query: Record: COC(=O)c1ccc(C2C(C(C)=O)=C(O)C(=O)N2CCc2c[nH]c3c(C)cccc23)cc1 (configuration not stated)
Result: 139%

Query: Continue with COC(=O)c1ccc(C2C(C(C)=O)=C(O)C(=O)N2CCc2c(C)[nH]c3ccccc23)cc1 (racemic)
Result: 217%

Query: Another: COC(=O)c1ccc(C2C(C(C)=O)=C(O)C(=O)N2CCc2c[nH]c3ccccc23)cc1 (configuration not stated)
Result: 275%

Query: Now this one: CCOC(=O)c1ccc(C2C(C(=O)c3cccnc3)=C(O)C(=O)N2CCc2c[nH]c3ccccc23)cc1 (configuration not stated)
Result: 207%

Query: Now the same for COC(=O)c1ccc(C2C(C(=O)c3ccccc3)=C(O)C(=O)N2CCc2c[nH]c3ccccc23)cc1 (configuration not stated)
Result: 161%

Query: # repeat for COC(=O)c1ccc(C2C(C(C)=O)=C(O)C(=O)N2CCc2c[nH]c3ccccc23)c(OC)c1 (configuration not stated)
Result: 183%

Query: Also, CCOC(=O)c1ccc(C2C(C(C)=O)=C(O)C(=O)N2CCc2c[nH]c3ccccc23)c(O)c1 (configuration not stated) please.
Result: 194%
